biological target: Replicase polyprotein 1ab (Severe acute respiratory syndrome coronavirus 2, UniProt P0DTD1)
PARAMETER_MEASURED: Ki (µM)
Could you give me the number in µM? Just the number is fine.

Reported Ki for Cc1cc(C(=O)N[C@@H](C)C(=O)N[C@H](C(=O)N[C@@H](CC(C)C)C(=O)N[C@H](/C=C/C(=O)OCc2ccccc2)C[C@@H]2CCNC2=O)C(C)C)no1 : what is it?
9
